- Protocol text: Phase I open-label drug interaction PK study, arm A
- Run parameters: human, in vivo
Metric: Cmax (ng/mL)

[
  {
    "Compound smiles": "O=C1Nc2ccc(Cl)cc2[C@@](C#CC2CC2)(C(F)(F)F)O1",
    "Observed": 3720
  }
]

* * *

- Protocol text: Phase I open-label drug interaction PK study, arm A
- Run parameters: human, in vivo, 600 mg
Metric: Cmax (ng/mL)

[
  {
    "Compound smiles": "O=C1Nc2ccc(Cl)cc2[C@@](C#CC2CC2)(C(F)(F)F)O1",
    "Unit descriptor": "ng/mL",
    "Observed": 4150
  }
]

* * *

- Protocol text: Phase I open-label drug interaction PK study, arm A
- Run parameters: human, plasma, oral, EFV Tmax, median (IQR), EFV with pitavastatin, day 18, N=14

[
  {
    "Compound": "O=C1Nc2ccc(Cl)cc2[C@@](C#CC2CC2)(C(F)(F)F)O1 [EFV, efavirenz]",
    "Tmax, h": 1.5
  }
]

// provenance: paper PMC4404408
